Overview of recorded %Inh for various molecules
- Test system: LCK
- Applied conditions: concentration: 1 μM, replicates: in singlicate; n = 1
All answers are understood in %, so give the number only.

INSERT INTO results (molecule, unit, measured) VALUES
  ('COCCNC(=O)c1ccc(-c2cc(C(=O)NC3CC3)cc(F)c2C)cc1', '%', 4),
  ('CCc1nc(-c2cccc(C)c2)c(-c2ccnc(NCc3ccccc3)c2)s1', '%', 0),
  ('Cn1cc(-c2ccc3c(c2)CCN3C(=O)Cc2ccccc2Cl)c2c(N)ncnc21', '%', 99.5);

Please find the next molecule below.
Reported %Inh of O=C(NOCC1CC1)c1ccc(F)c(F)c1Nc1ccc(I)cc1Cl : 0

====

- Tested on: PDGFRB
- Applied conditions: concentration: 1 μM, replicates: in singlicate; n = 1
Parameter measured: %Inh (%)
All answers are understood in %, so give the number only.

# annotated cases, reported %Inh shown
INSERT INTO assay_data (compound, parameter_measured, measured) VALUES
  ('CN1c2ccc(CNc3ccc(F)cc3)cc2-c2c(cnn2C)S1(=O)=O', '%Inh', 0),
  ('Cc1ccc(C(=O)NCC(N)=O)cc1-n1c(C)cc(OCc2ccc(F)cc2F)c(Br)c1=O', '%Inh', 9),
  ('COc1ccc(CNC(=O)NC2CCN(c3ccnc(Nc4ccc(OC)cc4)n3)C2)cc1 (centres unmarked)', '%Inh', 20),
  ('CN(C(=O)c1ccc(-c2cc(-c3c[nH]nc3-c3ccccn3)ccn2)cc1)C1CCOCC1', '%Inh', 0);

Please find the next compound below.
Reported %Inh of O=C1NC(=O)C(N2CCc3ccccc32)=C1c1cccc(Cl)c1 : 5

====

- Tested on: VPS34
- Construct: gene PIK3C3
- Applied conditions: concentration: 1 μM, replicates: in singlicate; n = 1
Criterion: %Inh meeting or surpassing 20%. Met: 1.0. Not met: 0.0.

Some solved entries appear below for comparison.
INSERT INTO assay_data (molecule, cat) VALUES
  ('Cc1cccc(-c2nc(-c3ccc(S(C)(=O)=O)cc3)sc2-c2ccncc2)c1', 0.0),
  ('NS(=O)(=O)c1cccc(-c2ccc3ncc(N4CCOCC4)nc3c2)c1', 1.0),
  ('COC(=O)Nc1nc2cc(Oc3ccc(NC(=O)Nc4cc(F)ccc4F)cc3)ccc2[nH]1.Cl', 0.0),
  ('COc1cc(Nc2nccc(N3CCC(NC(=O)c4cccc(NC(C)=O)c4)C3)n2)cc(OC)c1OC (stereo not drawn)', 1.0);

Shifting focus to the molecule that follows.
Inquiry: Item Nc1nc(-c2ccc3c(N)n[nH]c3c2)cc(N2CCCC2)n1 with %Inh of 20% or above?
Reply text: 0.0

====

- Tested on: ZAK;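 also: kd values determined as follow-up on hits from a single-replicate KINOMEscan panel screen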
pKd: −log10 of the molar value.
Parameter measured: pKd

Reported pKd of O=C(NCCNc1ccnc(Nc2ccc(F)cc2)n1)c1cc2ccccc2s1 [GSK1379874] : < 5.00

====

- System: PIKFYVE
- Applied conditions: concentration: 1 μM, replicates: in singlicate; n = 1
// NB: equality with 20% counts as class 0; only %Inh strictly below is class 1

Some solved entries appear below for comparison.
INSERT INTO assay_data (compound, assayed_target, cat) VALUES
  ('CSc1ccc(-c2cc3ncnc(SCC(=O)O)c3s2)cc1', 'PIKFYVE', 'class 0'),
  ('N#Cc1c(N2CCOCC2)sc(-c2ccn[nH]2)c1-c1ccc(Cl)cc1', 'PIKFYVE', 'class 0'),
  ('COc1cc2c(cc1OC[C@@H](O)CO)ncc1c3ccc(C#N)cc3[nH]c21', 'PIKFYVE', 'class 0'),
  ('CC(=O)Nc1ccc(COc2ccc(Nc3ccnc4cc(-c5ccccn5)ccc34)cc2)cc1.Cl', 'PIKFYVE', 'class 1');

Inquiry: # TODO verify %Inh < 20% strictly for this compound: Cc1nnc(-c2ccc3ncc(-c4ccc(S(C)=O)cc4)n3c2)o1 (stereo not drawn)
Reply text: class 1

Inquiry: # TODO verify %Inh < 20% strictly for this compound: Cc1nnc(-c2ccc3occ(-c4ccc(C(C)O)cc4)c3c2)o1 (stereo not drawn)
Reply text: class 1

Inquiry: # TODO verify %Inh < 20% strictly for this compound: c1ccc(-c2cc(-c3c[nH]nc3-c3ccccn3)ccn2)cc1
Reply text: class 1

Inquiry: # TODO verify %Inh < 20% strictly for this compound: COc1ccc(Nc2ncc(C#N)c(Nc3ccccc3C(N)=O)n2)cc1N1CCN(C)CC1.Cl
Reply text: class 0
